experimentalTarget: HLA-B*35:01
testProtocol: IEDB peptide-MHC binding, purified MHC/competitive/fluorescence; filed as Kd, often an IC50 or EC50 that approximates it; bounds were set here for any values at or beyond the usual limits of such assays
protocolConditions: source organism: Orthohantavirus khabarovskense
experimentalEndpoint: Kd

Prompt: Recorded Kd of `FSLPSSSSY` , please.
Response: ≤ 100 pM

====

experimentalTarget: HLA-A*03:01
testProtocol: IEDB peptide-MHC binding, purified MHC/competitive/fluorescence; filed as Kd, often an IC50 or EC50 that approximates it; bounds were set here for any values at or beyond the usual limits of such assays
protocolConditions: source organism: Escherichia coli F11
experimentalEndpoint: Kd

Prompt: Recorded Kd of `GIAACLMTY` , please.
Response: ≥ 20 µM
